Where a name gives a salt, the structure may show the parent alone.
readout.name: melting point

molecule | melting point
COc1ccc(C(=O)NCCCCCCCCN)c(O)c1 | 151 to 153 °C
CN(C)c1ccc(CNC(=O)c2ccccc2O)cc1 [Compound 4, N-(4-dimethylaminobenzyl) salicylamide] | 129 to 132 °C
CCN(CC)CCNC(=O)c1cc(Cl)ccc1O (as salt: citrate) [Compound 1, Mono-citrate] | 107 to 109 °C
NC(=O)c1ccc(CCCCCCN2CCOCC2)cc1O [Compound 5, 4-(6-morpholin-4-ylhexyl)-salicylamide] | 70 to 73 °C

# input for lookup
[Q] melting point lookup needed for CCN(CC)CCNC(=O)c1ccccc1O (as salt: citrate) [Compound 3, Mono-citrate] , thanks.
[A] 111 to 113 °C
